Molecular target: Carbonic anhydrase 2 (Homo sapiens, UniProt P00918)
Assay: Inhibition of CA-2 (unknown origin) at 10 uM after 15 mins by CO2 hydration assay
Measured Endpoint: inhibition (%)
Express the result in % but write the number alone.

Worked cases, inhibition given:
[[record]]
input_smiles = "Cc1ccc(S(=O)(=O)Nc2ccccc2)cc1"
measured_target = "Carbonic anhydrase 2 (Homo sapiens, UniProt P00918)"
measured_endpoint = "inhibition"
unit_spec = "%"
numeric_result = 45

[[record]]
input_smiles = "COc1ccc(S(=O)(=O)Nc2ccccc2)cc1OC"
measured_target = "Carbonic anhydrase 2 (Homo sapiens, UniProt P00918)"
measured_endpoint = "inhibition"
unit_spec = "%"
numeric_result = 45


Item Cc1ccc(S(=O)(=O)NCc2ccccc2)cc1 with Carbonic anhydrase 2 (Homo sapiens, UniProt P00918) - inhibition? 44

Item Cc1ccc(S(=O)(=O)N(C)c2ccccc2)cc1 with Carbonic anhydrase 2 (Homo sapiens, UniProt P00918) - inhibition? 45

Item CC(=O)c1ccc(S(=O)(=O)Nc2ccccc2)cc1 with Carbonic anhydrase 2 (Homo sapiens, UniProt P00918) - inhibition? 47
